E. coli MG 1655 data, read-out MIC

CN(C)[C@@H]1C(O)=C(C(N)=O)C(=O)[C@@]2(O)C(O)=C3C(=O)c4c(O)ccc(-c5ccc[nH]5)c4C[C@H]3C[C@@H]12 [T] : < 4 µg/mL
CN(C)c1ccc(O)c2c1C[C@H]1C[C@H]3[C@H](N(C)C)C(O)=C(C(N)=O)C(=O)[C@@]3(O)C(O)=C1C2=O [Minocycline, reference compound] : < 4 µg/mL
CCNN(CC)Cc1ccc(O)c2c1C[C@H]1C[C@H]3[C@H](N(C)C)C(O)=C(C(N)=O)C(=O)[C@@]3(O)C(O)=C1C2=O [Z] : 4 to 8 µg/mL

Ask: Check E. coli MG 1655 data and give MIC for C/C(=N\OC(C)(C)C)c1cc(N)c(O)c2c1C[C@H]1C[C@H]3[C@@H](N(C)C)C(O)=C(C(N)=O)C(=O)[C@@]3(O)C(O)=C1C2=O [R] .
Result: > 8 µg/mL

Ask: Check E. coli MG 1655 data and give MIC for CN(C)[C@H]1C(O)=C(C(N)=O)C(=O)[C@@]2(O)C(O)=C3C(=O)c4c(O)ccc(CNOCC(F)F)c4C[C@H]3C[C@@H]12 [DY] .
Result: > 8 µg/mL

Ask: Check E. coli MG 1655 data and give MIC for CC(=O)c1cccc2c1C[C@H]1C[C@H]3[C@H](N(C)C)C(O)=C(C(N)=O)C(=O)[C@@]3(O)C(O)=C1C2=O [E] .
Result: > 8 µg/mL

Ask: Check E. coli MG 1655 data and give MIC for CN(C)[C@@H]1C(O)=C(C(N)=O)C(=O)[C@@]2(O)C(O)=C3C(=O)c4c(O)ccc(CNOC(C)(C)C)c4C[C@H]3C[C@@H]12 [AB] .
Result: > 8 µg/mL

Ask: Check E. coli MG 1655 data and give MIC for CC1CCN(Cc2cccc3c2C[C@H]2C[C@H]4[C@@H](N(C)C)C(O)=C(C(N)=O)C(=O)[C@@]4(O)C(O)=C2C3=O)CC1 [G] .
Result: > 8 µg/mL

Ask: Check E. coli MG 1655 data and give MIC for C/C(=N\OC(C)(C)C)c1cc(N)c(O)c2c1C[C@H]1C[C@H]3[C@H](N(C)C)C(O)=C(C(N)=O)C(=O)[C@@]3(O)C(O)=C1C2=O [Q] .
Result: 4 to 8 µg/mL

* * *

Experiment: in vitro
Format: cell-based
Settings: Chinese hamster
Measured IC50 at 24 h values are reported for all entries that follow.

The following compounds have reported results that may help.
CCO/N=C(\C)CN(C)Cc1ccc(O)c2c1C[C@H]1C[C@H]3[C@H](N(C)C)C(O)=C(C(N)=O)C(=O)[C@@]3(O)C(O)=C1C2=O : < 35 µg/mL
CN(C)c1cc(C#N)c(O)c2c1C[C@H]1C[C@H]3[C@H](N(C)C)C(O)=C(C(N)=O)C(=O)[C@@]3(O)C(O)=C1C2=O : < 35 µg/mL
CN(C)[C@@H]1C(O)=C(C(N)=O)C(=O)[C@@]2(O)C(O)=C3C(=O)c4c(O)ccc(CNOCCF)c4C[C@H]3C[C@@H]12 : > 75 µg/mL
CO/N=C/c1cc(N(C)C)c2c(c1O)C(=O)C1=C(O)[C@]3(O)C(=O)C(C(N)=O)=C(O)[C@@H](N(C)C)[C@@H]3C[C@@H]1C2 : < 35 µg/mL

Ask: Consider the compound CCO/N=C(/CCN(C)C)c1ccc(O)c2c1C[C@H]1C[C@H]3[C@@H](N(C)C)C(O)=C(C(N)=O)C(=O)[C@@]3(O)C(O)=C1C2=O . State its measured IC50 at 24 h.
Result: > 75 µg/mL

Ask: Consider the compound CON(C)Cc1ccc(O)c2c1C[C@H]1C[C@H]3[C@@H](N(C)C)C(O)=C(C(N)=O)C(=O)[C@@]3(O)C(O)=C1C2=O . State its measured IC50 at 24 h.
Result: > 75 µg/mL

* * *

P. acnes ATCC 11827 data, read-out MIC

The following compounds have reported results that may help.
C=CCONCc1ccc(O)c2c1C[C@H]1C[C@H]3[C@H](N(C)C)C(O)=C(C(N)=O)C(=O)[C@@]3(O)C(O)=C1C2=O [AF] : < 4 µg/mL
CN(C)[C@@H]1C(O)=C(C(N)=O)C(=O)[C@@]2(O)C(O)=C3C(=O)c4c(O)ccc(-c5nccs5)c4C[C@H]3C[C@@H]12 [L] : < 4 µg/mL
CO/N=C/c1cc(N(C)C)c2c(c1O)C(=O)C1=C(O)[C@]3(O)C(=O)C(C(N)=O)=C(O)[C@@H](N(C)C)[C@@H]3C[C@@H]1C2 [V] : < 4 µg/mL
CN(C)[C@@H]1C(O)=C(C(N)=O)C(=O)[C@@]2(O)C(O)=C3C(=O)c4c(O)ccc(-c5ncco5)c4C[C@H]3C[C@@H]12 [J] : < 4 µg/mL
CCONCc1ccc2c(c1O)C(=O)C1=C(O)[C@]3(O)C(=O)C(C(N)=O)=C(O)[C@@H](N(C)C)[C@@H]3C[C@@H]1C2 [GM] : 4 to 8 µg/mL

// next entry
Ask: Check P. acnes ATCC 11827 data and give MIC for CN(C)[C@@H]1C(O)=C(C(N)=O)C(=O)[C@@]2(O)C(O)=C3C(=O)c4c(O)ccc(/C=N/n5cccc5)c4C[C@H]3C[C@@H]12 [AC] .
Result: < 4 µg/mL

* * *

Measured IC50 at 24 h values are reported for all entries that follow.
Experiment: in vitro
Assay type: cell-based
Details: Chinese hamster

CC1CCN(Cc2cccc3c2C[C@H]2C[C@H]4[C@@H](N(C)C)C(O)=C(C(N)=O)C(=O)[C@@]4(O)C(O)=C2C3=O)CC1 : > 75 mg/L

Ask: Consider the molecule CN(C)[C@H]1C(O)=C(C(N)=O)C(=O)[C@@]2(O)C(O)=C3C(=O)c4c(O)ccc(CNOCC(F)(F)F)c4C[C@H]3C[C@@H]12 . State its measured IC50 at 24 h.
Result: > 75 mg/L

Ask: Consider the molecule COC(=O)CONCc1ccc(O)c2c1C[C@H]1C[C@H]3[C@H](N(C)C)C(O)=C(C(N)=O)C(=O)[C@@]3(O)C(O)=C1C2=O . State its measured IC50 at 24 h.
Result: < 35 mg/L

Ask: Consider the molecule CN(C)[C@@H]1C(O)=C(C(N)=O)C(=O)[C@@]2(O)C(O)=C3C(=O)c4c(O)ccc(-c5nccs5)c4C[C@H]3C[C@@H]12 . State its measured IC50 at 24 h.
Result: < 35 mg/L

Ask: Consider the molecule C/C(=N\OC(C)(C)C)c1cc(N)c(O)c2c1C[C@H]1C[C@H]3[C@H](N(C)C)C(O)=C(C(N)=O)C(=O)[C@@]3(O)C(O)=C1C2=O . State its measured IC50 at 24 h.
Result: < 35 mg/L

Ask: Consider the molecule CCON(C)Cc1ccc(O)c2c1C[C@H]1C[C@H]3[C@H](N(C)C)C(O)=C(C(N)=O)C(=O)[C@@]3(O)C(O)=C1C2=O . State its measured IC50 at 24 h.
Result: < 35 mg/L

* * *

P. acnes ATCC 11827 data, read-out MIC

The following compounds have reported results that may help.
CN(C)[C@@H]1C(O)=C(C(N)=O)C(=O)[C@@]2(O)C(O)=C3C(=O)c4c(O)ccc(CNOCC(F)(F)F)c4C[C@H]3C[C@@H]12 : < 4 µg/mL
COC(=O)CONCc1ccc(O)c2c1C[C@H]1C[C@H]3[C@H](N(C)C)C(O)=C(C(N)=O)C(=O)[C@@]3(O)C(O)=C1C2=O : < 4 µg/mL
CCONCc1ccc(O)c2c1C[C@H]1C[C@H]3[C@@H](N(C)C)C(O)=C(C(N)=O)C(=O)[C@@]3(O)C(O)=C1C2=O : < 4 µg/mL

Ask: Check P. acnes ATCC 11827 data and give MIC for C/C(=N\OC(C)(C)C)c1cc(N)c(O)c2c1C[C@H]1C[C@H]3[C@H](N(C)C)C(O)=C(C(N)=O)C(=O)[C@@]3(O)C(O)=C1C2=O .
Result: < 4 µg/mL

Ask: Check P. acnes ATCC 11827 data and give MIC for CN(C)[C@@H]1C(O)=C(C(N)=O)C(=O)[C@@]2(O)C(O)=C3C(=O)c4c(O)ccc(CNOC(C)(C)C)c4C[C@H]3C[C@@H]12 .
Result: < 4 µg/mL

* * *

P. acnes ATCC 11827 data, read-out MIC

The following compounds have reported results that may help.
C=CCN(Cc1ccc(O)c2c1C[C@H]1C[C@H]3[C@H](N(C)C)C(O)=C(C(N)=O)C(=O)[C@@]3(O)C(O)=C1C2=O)C(=O)OC : < 4 µg/mL
CN(C)[C@H]1C(O)=C(C(N)=O)C(=O)[C@@]2(O)C(O)=C3C(=O)c4cccc(-c5ncccn5)c4C[C@H]3C[C@@H]12 : 4 to 8 µg/mL
CN(C)[C@@H]1C(O)=C(C(N)=O)C(=O)[C@@]2(O)C(O)=C3C(=O)c4c(O)ccc(CN5CCCO5)c4C[C@H]3C[C@@H]12 : < 4 µg/mL

Ask: Consider the compound CCO/N=C(/CCN(C)C)c1ccc(O)c2c1C[C@H]1C[C@H]3[C@@H](N(C)C)C(O)=C(C(N)=O)C(=O)[C@@]3(O)C(O)=C1C2=O . State its measured MIC.
Result: < 4 µg/mL

Ask: Consider the compound CCON(C)Cc1ccc(O)c2c1C[C@H]1C[C@H]3[C@H](N(C)C)C(O)=C(C(N)=O)C(=O)[C@@]3(O)C(O)=C1C2=O . State its measured MIC.
Result: < 4 µg/mL

Ask: Consider the compound CN(C)[C@H]1C(O)=C(C(N)=O)C(=O)[C@@]2(O)C(O)=C3C(=O)c4c(O)ccc(CNOCC(F)(F)F)c4C[C@H]3C[C@@H]12 . State its measured MIC.
Result: < 4 µg/mL
